target: Muscarinic acetylcholine receptor M3 (Homo sapiens, UniProt P20309)
Sequence (P20309 whole entry): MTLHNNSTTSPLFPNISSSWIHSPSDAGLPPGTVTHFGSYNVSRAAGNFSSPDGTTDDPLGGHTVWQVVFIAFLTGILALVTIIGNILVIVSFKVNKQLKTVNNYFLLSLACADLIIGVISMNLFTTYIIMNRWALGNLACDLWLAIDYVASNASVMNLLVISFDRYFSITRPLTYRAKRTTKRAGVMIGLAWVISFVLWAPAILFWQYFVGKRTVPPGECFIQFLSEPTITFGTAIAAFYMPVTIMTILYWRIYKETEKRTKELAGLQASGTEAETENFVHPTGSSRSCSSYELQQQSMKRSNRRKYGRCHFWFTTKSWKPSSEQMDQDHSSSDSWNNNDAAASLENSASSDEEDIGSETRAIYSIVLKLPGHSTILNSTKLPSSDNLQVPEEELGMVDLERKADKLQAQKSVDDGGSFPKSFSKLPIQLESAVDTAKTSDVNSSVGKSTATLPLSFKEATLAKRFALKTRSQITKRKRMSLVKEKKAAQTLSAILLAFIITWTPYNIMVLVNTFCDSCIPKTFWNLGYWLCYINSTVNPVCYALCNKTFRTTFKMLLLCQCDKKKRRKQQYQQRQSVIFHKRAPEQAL
assay.procedure: Displacement of [3H]N -methylscopolamine from human muscarinic M3 receptor expressed in CHO-K1 cells incubated for 90 mins by scintillation counting method
pIC50: −log10 of the molar value.
assay.readout: pIC50

* O=C(O[C@@H](Cc1c(Cl)c[n+]([O-])cc1Cl)c1ccc(OC(F)F)c(OCC2CC2)c1)C1CN(C(=O)c2ccc(COc3cccc(CN(C(=O)O[C@H]4CN5CCC4CC5)c4ccccc4)c3)cc2)C1 | 7.00

###

target: Mitogen-activated protein kinase 10 (Homo sapiens, UniProt P53779)
Sequence (P53779 whole entry): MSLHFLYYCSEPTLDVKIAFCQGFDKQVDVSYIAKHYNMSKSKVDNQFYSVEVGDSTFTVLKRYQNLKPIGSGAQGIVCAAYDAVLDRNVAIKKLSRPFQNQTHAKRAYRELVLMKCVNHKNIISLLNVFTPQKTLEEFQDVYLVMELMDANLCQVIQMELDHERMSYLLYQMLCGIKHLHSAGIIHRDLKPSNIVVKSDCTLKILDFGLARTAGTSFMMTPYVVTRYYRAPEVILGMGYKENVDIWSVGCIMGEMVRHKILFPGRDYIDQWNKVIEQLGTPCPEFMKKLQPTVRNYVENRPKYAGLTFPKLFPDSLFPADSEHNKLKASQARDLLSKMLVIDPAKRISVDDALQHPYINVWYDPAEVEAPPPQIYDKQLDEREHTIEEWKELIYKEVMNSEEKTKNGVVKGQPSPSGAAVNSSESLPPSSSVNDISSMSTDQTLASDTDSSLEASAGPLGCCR
assay.procedure: Inhibition of JNK3 (unknown origin)
assay.readout: IC50 (nM)

* CC(=O)Nc1ccc(-c2c(-c3ccc(F)cc3)nc([S+](C)[O-])n2C)cn1 (stereo unspecified) | 700

###

target: High affinity 3',5'-cyclic-AMP phosphodiesterase 7A (Homo sapiens)
Sequence (Q13946 whole entry): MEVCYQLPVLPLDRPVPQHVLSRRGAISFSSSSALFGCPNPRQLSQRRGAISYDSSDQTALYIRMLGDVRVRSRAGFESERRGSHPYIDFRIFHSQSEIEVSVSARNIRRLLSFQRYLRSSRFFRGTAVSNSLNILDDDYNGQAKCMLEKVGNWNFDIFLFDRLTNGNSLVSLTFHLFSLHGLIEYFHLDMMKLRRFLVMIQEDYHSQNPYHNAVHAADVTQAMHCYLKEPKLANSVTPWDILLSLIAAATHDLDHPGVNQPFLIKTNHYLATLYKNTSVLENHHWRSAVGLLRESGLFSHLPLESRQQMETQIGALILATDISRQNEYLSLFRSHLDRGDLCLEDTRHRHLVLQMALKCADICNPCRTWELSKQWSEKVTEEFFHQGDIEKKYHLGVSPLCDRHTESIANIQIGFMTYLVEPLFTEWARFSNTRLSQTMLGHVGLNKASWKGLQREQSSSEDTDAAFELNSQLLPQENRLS
assay.procedure: Inhibition of human PDE7A expressed in HEK293 cells using cAMP as substrate incubated for 60 mins by ELISA
pIC50: −log10 of the molar value.
assay.readout: pIC50

* CCc1nc2c(cnn2CC)c(NC2CCCCC2)c1C1=NOC2(C1)CC(C1N=NN=N1)C2 (stereo unspecified) | 7.26

###

target: 3',5'-cyclic-AMP phosphodiesterase 4B (Homo sapiens)
assay.procedure: Inhibition of recombinant human PDE4B2 using cAMP as substrate preincubated for 15 mins followed by substrate addition and measured after 60 mins by Alphascreen assay
pIC50: −log10 of the molar value.
assay.readout: pIC50

- COc1ccc(-c2nc(C(=O)NCc3coc4ccccc34)c([C@@H](C)N)o2)c2ccc(C(F)(F)F)nc12: 11.00

###

target: 3',5'-cyclic-AMP phosphodiesterase 4B (Homo sapiens, UniProt Q07343)
Sequence (Q07343 whole entry, the tested form may be a part): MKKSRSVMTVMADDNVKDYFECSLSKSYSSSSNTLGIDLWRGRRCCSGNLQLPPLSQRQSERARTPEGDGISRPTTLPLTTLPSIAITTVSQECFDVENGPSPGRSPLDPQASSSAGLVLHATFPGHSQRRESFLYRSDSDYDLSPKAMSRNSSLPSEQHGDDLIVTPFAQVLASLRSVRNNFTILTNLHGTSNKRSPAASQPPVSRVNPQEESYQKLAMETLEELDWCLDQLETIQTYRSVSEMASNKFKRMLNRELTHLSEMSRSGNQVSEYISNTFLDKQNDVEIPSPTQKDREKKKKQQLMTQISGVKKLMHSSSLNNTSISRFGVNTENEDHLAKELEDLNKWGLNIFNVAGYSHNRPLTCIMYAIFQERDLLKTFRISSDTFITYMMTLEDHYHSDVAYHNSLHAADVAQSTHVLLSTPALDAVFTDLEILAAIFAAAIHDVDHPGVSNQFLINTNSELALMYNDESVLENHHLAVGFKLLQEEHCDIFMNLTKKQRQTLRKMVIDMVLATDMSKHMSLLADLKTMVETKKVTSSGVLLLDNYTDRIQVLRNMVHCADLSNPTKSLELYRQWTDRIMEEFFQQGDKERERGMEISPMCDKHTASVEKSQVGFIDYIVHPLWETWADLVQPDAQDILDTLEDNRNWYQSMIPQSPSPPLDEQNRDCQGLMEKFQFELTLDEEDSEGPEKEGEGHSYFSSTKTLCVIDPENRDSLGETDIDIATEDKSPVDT
assay.procedure: Inhibition of recombinant human PDE4B catalytic domain expressed in baculovirus infected sf9 cells using 3H-cAMP as substrate incubated for 20 mins by scintillation counting method
pIC50: −log10 of the molar value.
assay.readout: pIC50

• COC1=CC=C(C2=NN(CCCCCOc3ccc(C4=NNC(=O)CC4C)cc3)C(=O)CC2C)C2CC(C(F)(F)F)=NN12 (stereo unspecified) = 7.38

###

target: 3',5'-cyclic-AMP phosphodiesterase 4D (Homo sapiens, UniProt Q08499)
Sequence (Q08499 whole entry, the tested form may be a part): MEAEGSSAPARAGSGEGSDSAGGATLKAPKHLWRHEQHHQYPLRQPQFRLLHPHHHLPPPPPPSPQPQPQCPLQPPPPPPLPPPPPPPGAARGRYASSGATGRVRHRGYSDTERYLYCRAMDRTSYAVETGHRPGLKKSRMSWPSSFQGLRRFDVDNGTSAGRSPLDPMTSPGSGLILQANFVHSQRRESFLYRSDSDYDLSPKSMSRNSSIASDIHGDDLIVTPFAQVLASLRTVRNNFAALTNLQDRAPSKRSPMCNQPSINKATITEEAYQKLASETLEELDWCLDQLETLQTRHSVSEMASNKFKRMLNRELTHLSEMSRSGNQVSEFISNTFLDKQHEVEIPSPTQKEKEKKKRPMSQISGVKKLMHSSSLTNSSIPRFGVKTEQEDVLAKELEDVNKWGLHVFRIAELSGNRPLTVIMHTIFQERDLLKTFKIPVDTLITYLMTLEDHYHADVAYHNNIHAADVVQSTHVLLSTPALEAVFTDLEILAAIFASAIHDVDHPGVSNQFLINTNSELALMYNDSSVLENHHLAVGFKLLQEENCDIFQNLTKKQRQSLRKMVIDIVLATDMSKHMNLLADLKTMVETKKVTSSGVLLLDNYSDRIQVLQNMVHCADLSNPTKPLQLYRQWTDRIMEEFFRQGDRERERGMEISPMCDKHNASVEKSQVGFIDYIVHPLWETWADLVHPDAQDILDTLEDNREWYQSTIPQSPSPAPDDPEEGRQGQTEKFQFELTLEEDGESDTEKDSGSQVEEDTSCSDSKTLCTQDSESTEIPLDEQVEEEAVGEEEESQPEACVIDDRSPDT
assay.procedure: Inhibition of human PDE4D2 catalytic domain (86 to 413 residues) expressed in Escherichia coli BL21 cells using 3H-cGMP or 3H-cAMP as substrate by liquid scintillation counting method
assay.readout: IC50 (nM)

- COc1ccc([C@@]2(c3cccc(OC)c3)c3cc(O)ccc3-c3ccc(C=O)c(C#Cc4ccc(O)cc4)c32)cc1: 11

###

target: 3',5'-cyclic-AMP phosphodiesterase 4B (Homo sapiens, UniProt Q07343)
assay.procedure: Inhibition of N-terminal GST tagged full length human PDE4B2 expressed in baculovirus infected Sf9 cell expression system using cAMP as substrate incubated for 60 mins by time-resolved fluorescence competitive immunoassay
pIC50: −log10 of the molar value.
Measured pIC50 values are reported for all entries that follow.
assay.readout: pIC50

* CCOc1cc([C@H](CS(C)(=O)=O)N2C(=O)c3cccc(NC(=O)OCCOCCOCCOCCOCCOCCOC)c3C2=O)ccc1OC | 8.52
* CCOc1cc([C@H](CS(C)(=O)=O)N2C(=O)c3cccc(NC(=O)OCCOCCOCCOCCOCCOC)c3C2=O)ccc1OC | 8.52
* CCOc1cc([C@H](CS(C)(=O)=O)N2C(=O)c3cccc(NC(=O)OCCOCCOCCOCCOCCOCCOCCOCCOC)c3C2=O)ccc1OC | 8.52
* CCOc1cc([C@H](CS(C)(=O)=O)N2C(=O)c3cccc(NC(=O)OCCOCCOCCOC)c3C2=O)ccc1OC | 8.52
* CCOc1cc([C@H](CS(C)(=O)=O)N2C(=O)c3cccc(NC(=O)OCCOCCOCCOCCOCCOCCOCCOC)c3C2=O)ccc1OC | 8.52
* CCOc1cc([C@H](CS(C)(=O)=O)N2C(=O)c3cccc(NC(=O)OCCOCCOCCOCCOC)c3C2=O)ccc1OC | 8.52
